Listed here: items and their measured %Inh.
System: CAMKK1;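 note: KINOMEscan kinase panel screen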
Conditions: concentration: 1 μM,replicates: in singlicate; n = 1
assayReadout: %Inh

- molecule: "O=c1[nH]cc(-c2ccc(O)cc2)c2sc(-c3ccncc3)cc12 [GSK1033723]"
  testSystem: "CAMKK1"
  recordedMeasurement: "15%"
- molecule: "COC(=O)c1cccc(NC(=O)NC2CCN(c3ccnc(Nc4cc(OC)c(OC)c(OC)c4)n3)C2)c1 (stereo not shown) [GSK1379767]"
  testSystem: "CAMKK1"
  recordedMeasurement: "13%"
- molecule: "O=C(NOCC1CC1)c1cc(Br)c(F)c(F)c1Nc1ccc(I)cc1Cl"
  testSystem: "CAMKK1"
  recordedMeasurement: "0%"
- molecule: "CCN1CCN(CCCC(=O)Nc2n[nH]c3nc(-c4ccc(O)cc4)c(Br)cc23)CC1 [SB-731579]"
  testSystem: "CAMKK1"
  recordedMeasurement: "0%"

# credit: paper PMC5540273
